The molecules listed here are annotated with their CC50.
- System: A 172
- Method description: Cytotoxicity against human A172 cells after 3 days by neutral red dye-based photometric method
- Assay type: cell-based
- Measurement context: a 172, 72 h

Solved cases (3 shown):
Molecule	Tested target	Endpoint result
O=C(NCCN1CCCC1)c1cc(-c2cccs2)nc2ccccc12	A 172	65.4 µM
CCCCOc1cc(C(=O)NCCN(CC)CC)c2ccccc2n1 [DIBUCAINE]	A 172	> 30 µM
CN(C)CCNC(=O)c1cc(-c2cccs2)nc2ccccc12	A 172	73.8 µM

Now let's try a different one.
[ask] Determine from records and report CC50 for CN(C)CCNC(=O)c1cc(-c2ccccc2)nc2ccccc12
[reply] 88.4 µM

###

- System: RD
- Method description: Cytotoxicity against human RD cells after 3 days by neutral red dye-based photometric method
- Type: cell-based
- Measurement context: rd, 72 h
The molecules listed here are annotated with their log10 of CC50.
In plain terms, each number is the log10 of measured CC50 in µM.

Molecule	Tested target	Endpoint result
CN(C)CCCNC(=O)c1cc(-c2cccs2)nc2ccccc12	RD	1.61
CCN(CC)CCNC(=O)c1cc(-c2cccs2)nc2ccccc12	RD	1.57
CCN(CC)CCNC(=O)c1cc(/C=C/c2ccccc2)nc2ccccc12	RD	1.06
O=C(NCCN1CCCC1)c1cc(-c2ccccc2)nc2ccccc12	RD	1.67
CCN(CC)CCNC(=O)c1cc(-c2ccccc2)nc2ccc(Cl)cc12	RD	1.13
CCN(CC)CCNC(=O)c1cc(-c2cnn(C)c2)nc2ccccc12	RD	2.40

[ask] Fill: log10 of CC50 (RD) for this molecule O=C(NC1CN2CCC1CC2)c1cc(-c2ccccc2)nc2ccccc12 (stereo not drawn)
[reply] 1.67

[ask] Fill: log10 of CC50 (RD) for this molecule CCN(CC)CCNC(=O)c1cc(-c2ccccc2)nc2ccc(OC)cc12
[reply] 1.44

[ask] Fill: log10 of CC50 (RD) for this molecule CCN(CC)CCNC(=O)c1cc(-c2ccc3c(c2)CCO3)nc2ccccc12
[reply] 1.47

[ask] Fill: log10 of CC50 (RD) for this molecule CCN(CC)CCNC(=O)c1cc(-c2cnc(OC)nc2)nc2ccccc12
[reply] 2.24

[ask] Fill: log10 of CC50 (RD) for this molecule CCN(CC)CCNC(=O)c1cc(OC(C)C)nc2ccccc12
[reply] 2.05

[ask] Fill: log10 of CC50 (RD) for this molecule CCN(CC)CCNC(=O)c1cc(-c2ccnn2C)nc2ccccc12
[reply] 2.12

###

- Method description: Selectivity index, ratio of CC50 for human RD cells to EC50 for Enterovirus D68 US/KY/14-18953 infected in human RD cells
- Assay type: toxicity, cell-based
- Measurement context: read-out: Ratio CC50/EC50
Endpoint: selectivity ratio
Provide a numeric answer; units are not to be included.

Solved cases (8 shown):
Molecule	Endpoint result
CCN(CC)CCNC(=O)c1cc(OCC2CC2)nc2ccccc12	5.4
CC(C)Oc1cc(C(=O)NC2CCN(C)CC2)c2ccccc2n1	5.7
O=C(NCCCn1ccnc1)c1cc(-c2cccs2)nc2ccccc12	6.3
CCN(CC)CCNC(=O)c1cc(-c2cccs2)nc2ccccc12	62.3
CCN(CC)CCNC(=O)c1cc(-c2cnc(OC)nc2)nc2ccccc12	2
CCN(CC)CCNC(=O)c1cc(-c2ccncc2)nc2ccccc12	26.3
O=C(NC1CN2CCC1CC2)c1cc(-c2ccccc2)nc2ccccc12 (stereo unspecified)	13.3
O=C(NCCN1CCCC1)c1cc(-c2cccs2)nc2ccccc12	667

[ask] Determine from records and report selectivity ratio for CCOCCOc1cc(C(=O)NCCN(CC)CC)c2ccccc2n1
[reply] 11.8

[ask] Determine from records and report selectivity ratio for CCN(CC)CCNC(=O)c1cc(OC(C)C)nc2ccccc12
[reply] 44.5

[ask] Determine from records and report selectivity ratio for CCOc1cc(C(=O)NCCN(CC)CC)c2ccccc2n1
[reply] 27.9
